# Tested on: tissue autofluorescence in FFPE mouse multi-tissue arrays
# Assay protocol: Quinone compounds tested for tissue autofluorescence quenching, FFPE mouse multi-tissue arrays
# Experimental setup: incubated for 30 min; compared with 4×SSC untreated control slide

Compound: O=C1C=C(Cl)C(=O)C=C1Cl [2,5-Dichloro-1,4-benzoquinone]
Autofluorescence quenching effect: Yes
//
Compound: COC1=CC(=O)C(OC)=CC1=O [2,5-Dimethoxy-(1,4)-benzoquinone]
Autofluorescence quenching effect: No
//
Compound: O=C1C=CC(=O)C=C1 [p-benzoquinone]
Autofluorescence quenching effect: Yes
//
Compound: COC1=CC(=O)C=CC1=O [2-methoxybenzo-1,4-quinone]
Autofluorescence quenching effect: Yes
//
Compound: CC1=CC(=O)C=CC1=O [Methyl-p-benzoquinone]
Autofluorescence quenching effect: No
//
Compound: O.O=C1C(O)=C(O)C(=O)C(O)=C1O [Tetrahydroxy-1,4-quinone hydrate]
Autofluorescence quenching effect: No

----------
# Assay protocol: Maximum solubility in 4×SSC
# Format: physicochemical
# Experimental setup: 4×SSC buffer, aqueous buffer
Measurement type: solubility (mM)

Smiles: O=C1C=CC(=O)C=C1
Measurement type: solubility
Observed value: 100
